Listed next: entries and their corresponding GI50.
system: UO-31; assay: NCI tumour cell line growth inhibition, 48 h
The source made the active and inactive calls. No stated cut-off is given here; in the data, active = GI50 up to about 1.1 µM and inactive = higher.

>  <COMPOUND>
c1ccc(N2N=C(c3ccco3)CC2c2ccco2)cc1 (stereo not given)

>  <GI50>
28.6 µM (inactive)

$$$$
>  <COMPOUND>
CCCCNC(=O)OCC(COc1ccccc1OC)OC(=O)NCCCC (stereo not given)

>  <GI50>
63.8 µM (inactive)

$$$$
>  <COMPOUND>
Cc1c(-c2nc3ccccc3[nH]2)c(=O)n(-c2ccccc2)n1C

>  <GI50>
> 100 µM (inactive)

$$$$
>  <COMPOUND>
Nc1ccc(/N=N/c2ccc(/C=C/c3ccc(/N=N/c4ccc(N)c5ccc(S(=O)(=O)O)cc45)cc3S(=O)(=O)O)c(S(=O)(=O)O)c2)c2cc(S(=O)(=O)O)ccc12

>  <GI50>
> 100 µM (inactive)

$$$$
>  <COMPOUND>
CCOC(=O)CSc1cc[nH]c(=O)n1

>  <GI50>
> 100 µM (inactive)

$$$$
